Tested on: HEK293
Assay: Cytotoxicity against HEK293 cells assessed as reduction in cell viability at 8 ug/ml after 24 hrs by MTS assay
Format: cell-based
Conditions: human, hek293, 24 h
measure_name: Activity

Here is how some compounds turned out for Activity.
Activity reported for this compound COc1ccc2c(c1)c(CCNC(=N)N)c(C)n2Cc1ccc(Cl)c(Cl)c1.Cl : Non-toxic

Record Cl.NCCc1cn(Cc2ccc(Cl)c(Cl)c2)c2ccccc12 . Reported Activity: Toxic

Lab book: Activity of COc1ccc2c(c1)c(CCN)c(C)n2Cc1ccc(Cl)c(Cl)c1.Cl noted as Toxic

Given item CSc1ccc2c(c1)c(CCN)c(C)n2Cc1ccc(Cl)c(Cl)c1 , the value recorded as its Activity is Toxic

Quick note, Activity for COc1ccc2c(c1)c(CCNC(=N)N)cn2Cc1ccc(Cl)c(Cl)c1.Cl landed at Non-toxic

The value of Activity measured for the compound Cl.N=C(N)NCCc1cn(Cc2ccc(Cl)c(Cl)c2)c2ccccc12 turned out to be Non-toxic

Entry Cl.N=C(N)NCCc1cn(Cc2ccc(F)c(F)c2)c2ccccc12 , Activity reported as Non-toxic

Note: attention shifts to another entry.
Entry under test: COc1ccc2c(c1)c(CCN)cn2Cc1ccc(Cl)c(Cl)c1.Cl . Its Activity was Toxic

----------
Assay: Inhibition of Enterococcus hirae PBP2 transglycosylase activity after 30 mins by continous fluorescence assay
measure_name: IC50

IC50 for CSc1ccc2c(c1)c(CCN)c(C)n2Cc1ccc(Cl)c(Cl)c1 is 33 µM

----------
System: Escherichia coli
Test: Inhibition of transglycosylase activity of Escherichia coli PBP1b assessed as remaining activity at 500 uM incubated for 30 mins by continous fluorescence assay
measure_name: Activity

The cases that follow already have their Activity on record.
// assay Escherichia coli, entry COc1cccc(Cn2cc(CCN)c3ccccc32)c1 , Activity value = 86%

Measured on Escherichia coli, COc1ccccc1Cn1cc(CCNC(=N)N)c2ccccc21 has a documented Activity of 29%

Entry COc1ccc2c(c1)c(CCN)cn2Cc1ccc(F)c(F)c1 : Activity on Escherichia coli = 88%

Further cases:
Item: COc1ccc2c(c1)c(CCN)c(C)n2Cc1ccc(F)c(F)c1 | System: Escherichia coli | Activity: 28%

# value of Activity, Escherichia coli, item CSc1ccc2c(c1)c(CCN)c(C)n2Cc1ccc(Cl)c(Cl)c1 = 1%

// Activity (Escherichia coli) for CSc1ccc2c(c1)c(CCN)c(C)n2Cc1ccccc1 = 31%

----------
Molecular target: Penicillin-binding protein 2 (Staphylococcus aureus, UniProt Q53729)
Sequence (Q53729 whole entry): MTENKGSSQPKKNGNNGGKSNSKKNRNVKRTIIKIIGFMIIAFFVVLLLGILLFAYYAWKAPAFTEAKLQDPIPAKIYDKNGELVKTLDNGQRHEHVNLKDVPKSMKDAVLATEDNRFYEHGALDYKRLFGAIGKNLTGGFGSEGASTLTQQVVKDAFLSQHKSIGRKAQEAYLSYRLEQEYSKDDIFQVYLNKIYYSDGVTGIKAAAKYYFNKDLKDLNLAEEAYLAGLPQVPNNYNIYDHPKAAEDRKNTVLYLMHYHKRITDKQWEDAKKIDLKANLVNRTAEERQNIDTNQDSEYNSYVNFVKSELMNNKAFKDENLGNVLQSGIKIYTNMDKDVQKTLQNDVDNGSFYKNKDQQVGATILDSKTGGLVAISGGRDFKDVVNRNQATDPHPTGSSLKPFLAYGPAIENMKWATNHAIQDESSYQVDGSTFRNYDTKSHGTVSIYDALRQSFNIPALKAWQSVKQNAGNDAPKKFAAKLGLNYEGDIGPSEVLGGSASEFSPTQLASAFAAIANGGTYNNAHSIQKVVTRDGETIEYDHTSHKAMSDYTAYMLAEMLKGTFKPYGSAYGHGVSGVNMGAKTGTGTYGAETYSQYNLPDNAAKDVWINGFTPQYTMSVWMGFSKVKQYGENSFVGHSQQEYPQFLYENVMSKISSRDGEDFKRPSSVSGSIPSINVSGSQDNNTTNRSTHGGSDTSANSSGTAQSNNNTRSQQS
measure_name: IC50

Noted for CSc1ccc2c(c1)c(CCN)c(C)n2Cc1ccc(Cl)c(Cl)c1 : its IC50 reads 20.7 µM

----------
Assay: Inhibition of Thermotoga maritima PBP1A transglycosylase activity after 30 mins by continous fluorescence assay
measure_name: IC50 (µM)
# number only, unit µM dropped from output

Form field IC50, entry CSc1ccc2c(c1)c(CCN)c(C)n2Cc1ccc(Cl)c(Cl)c1 : 56

----------
Tested on: Escherichia coli
Assay: Inhibition of transglycosylase activity of Escherichia coli PBP1b assessed as remaining activity at 500 uM incubated for 30 mins by continous fluorescence assay
measure_name: Activity (%)
Reply with just the number (in %).

Form: item COc1ccc2c(c1)c(CCNC(=N)N)cn2Cc1ccc(Cl)c(Cl)c1.Cl ; test system Escherichia coli; Activity: 9

---
Bench note, Escherichia coli: NCCc1cn(Cc2ccccc2)c2ccccc12 , Activity reads 93

Here COc1ccc(Cn2cc(CCNC(=N)N)c3ccccc32)cc1 was tested on Escherichia coli, and its Activity came to 67

Record for COc1ccccc1Cn1cc(CCN)c2ccccc21 under target or system Escherichia coli: Activity reported as 96

Note to self: Activity of N#Cc1cccc(Cn2cc(CCN)c3ccccc32)c1 with Escherichia coli was 94

COc1ccc2c(c1)c(CCN)cn2Cc1ccc(C#N)cc1 on Escherichia coli gives Activity = 105

Where do these numbers come from? They come from ChEMBL document CHEMBL3745642.
